What MIC was measured for each of the following?
- Test system: M. globosa
- assay-remarks: Agar dilution test on mDixon agar, minimal inhibitory concentration (MIC)
- Type: cell-based
- condition-description: Malassezia globosa, CBS7966, 336 h; M. globosa CBS 7966; agar dilution, pH 5.5, 32° C., up to 14 days; read-out: Minimal inhibitory concentration (MIC)
- Experimental: The fatty acid esters and their mixtures were tested for growth inhibition against Malassezia. The following reference strains were included: Tests were performed on solid media using agar dilution tests. […] Briefly, Malassezia strains were cultivated on selective agar for pathogenic fungi (Merck) and overlaid with a thin layer of cold-sterilized olive oil. […] Minimal inhibitory concentrations (MICs) were determined as the lowest concentrations of test compound without visible growth. […]
Just the number please, in µg/mL, no unit attached.

Query block: Would you mind telling me what MIC value was observed for CCCCCCCCC(O)CO (stereo not drawn) ?
Result block: 8000

Query block: Would you mind telling me what MIC value was observed for CCCCCCCC(=O)OCC(O)CO (stereo not drawn) [Glyceryl monocaprylate] ?
Result block: 1000

Query block: Would you mind telling me what MIC value was observed for CCCCCCCC(=O)OCCCO [3-Hydroxypropyl caprylate] ?
Result block: 1000

Query block: Would you mind telling me what MIC value was observed for CCCCC(O)CO (stereo not drawn) ?
Result block: 5000

Query block: Would you mind telling me what MIC value was observed for `CCCCCCCC(=O)O` ?
Result block: 1000

Query block: Would you mind telling me what MIC value was observed for CCCCCCCCCCC(O)CO (stereo not drawn) ?
Result block: 40000

---

- Tested on: M. globosa
- assay-remarks: Agar dilution test on mDixon agar, minimal inhibitory concentration (MIC)
- Format: cell-based
- condition-description: M. globosa PM1; agar dilution, pH 5.5, 32° C., up to 14 days
property-name: Minimal inhibitory concentration (MIC) (ppm)
Just the number please, in ppm, no unit attached.

Query block: Would you mind telling me what Minimal inhibitory concentration (MIC) value was observed for CCCCCCCC(=O)OCC(CO)OC(=O)CCCCCCC (stereo not shown) [3-Hydroxypropyl dicaprylate] ?
Result block: 8000

Query block: Would you mind telling me what Minimal inhibitory concentration (MIC) value was observed for C=CCCCCCCCCC(=O)OCC(CO)OC(=O)CCCCCCCCC=C (stereo not shown) [3-Hydroxypropyl diundecylenoate] ?
Result block: 10000

Query block: Would you mind telling me what Minimal inhibitory concentration (MIC) value was observed for C=CCCCCCCCCC(=O)OCC(COC(=O)CCCCCCCCC=C)OC(=O)CCCCCCCCC=C [Glyceryl triundecylenoate] ?
Result block: 8000

Query block: Would you mind telling me what Minimal inhibitory concentration (MIC) value was observed for `OCCCO` ?
Result block: 33000

---

- Tested on: M. sympodialis
- assay-remarks: Agar dilution test on mDixon agar, minimal inhibitory concentration (MIC)
- Format: cell-based
- condition-description: 336 h, pH 5.5, M. sympodialis ATCC 42132, pH 5.5, 32° C., up to 14 days, read-out: Minimal inhibitory concentration (MIC)
- Method: The fatty acid esters and their mixtures were tested for growth inhibition against Malassezia. The following reference strains were included: Tests were performed on solid media using agar dilution tests. […] Briefly, Malassezia strains were cultivated on selective agar for pathogenic fungi (Merck) and overlaid with a thin layer of cold-sterilized olive oil. […] Minimal inhibitory concentrations (MICs) were determined as the lowest concentrations of test compound without visible growth. […]
Field: label. Allowed values: met (MIC < 1000 µg/mL) or not met (MIC >= 1000 µg/mL).

Query block: A record lists C=CCCCCCCCCC(=O)OCCCO [3-Hydroxypropyl undecylenoate] . Is its MIC below 1000 µg/mL?
Result block: not met

Query block: A record lists CCCCCCCC(=O)O [Caprylic acid, caprylic acid] . Is its MIC below 1000 µg/mL?
Result block: met

Query block: A record lists C=CCCCCCCCCC(=O)OCC(O)CO (stereo not drawn) [Glyceryl monoundecylenoate] . Is its MIC below 1000 µg/mL?
Result block: met

Query block: A record lists C=CCCCCCCCCC(=O)OCC [Ethyl undecylenoate] . Is its MIC below 1000 µg/mL?
Result block: met

Query block: A record lists CCCC(O)CO (stereo not drawn) [1,2-Pentandiol] . Is its MIC below 1000 µg/mL?
Result block: not met

Query block: A record lists CCCCC(O)CO (stereo not drawn) [1,2-Hexandiol] . Is its MIC below 1000 µg/mL?
Result block: not met

Query block: A record lists CCCCCCC(O)CO (stereo not drawn) [1,2-Octandiol] . Is its MIC below 1000 µg/mL?
Result block: not met

Query block: A record lists CCCCCCCCCCC(O)CO (stereo not drawn) [1,2-Dodecandiol] . Is its MIC below 1000 µg/mL?
Result block: not met
